# Experiment Summary: Pharmacokinetic study, 3 mg/kg IV, 10 mg/kg PO and 10 mg/kg PO QD*3, plasma, liver and bone
# Type: in vivo, mouse
# Particulars: female, C57BL/6 J, mouse, plasma, po, 10 mg/kg, PO (QD*3), Time 7 h; individual values (1)-(3); read-out: Plasma concentration
Experimental Readout: concentration at 7 h (ng/mL)
Expressed in ng/mL, but write only the number.

Query string: Which measured concentration at 7 h value corresponds to O=C1Nc2ccc(-c3cc(C(F)(F)F)cc(C(F)(F)F)c3)cc2C(=O)N2CCN(C(=O)COc3ccc(OC(F)(F)F)cc3I)C[C@@H]12 ?
Result string: 144

---

# Experiment Summary: Pharmacokinetic study, single 30 mg/kg IP dose, plasma, liver and bone
# Assay type: in vivo, mouse
# Particulars: female, C57BL/6J, mouse, bone, ip, 30 mg/kg, IP, Time 12 h; individual values (1)-(3); read-out: Bone concentration
Experimental Readout: concentration at 12 h (ng/g)
Expressed in ng/g, but write only the number.

Query string: Which measured concentration at 12 h value corresponds to O=C1Nc2ccc(-c3cc(C(F)(F)F)cc(C(F)(F)F)c3)cc2C(=O)N2CCN(C(=O)COc3ccc(OC(F)(F)F)cc3I)C[C@@H]12 ?
Result string: 2830

---

# Experiment Summary: Pharmacokinetic study, 3 mg/kg IV, 10 mg/kg PO and 10 mg/kg PO QD*3, plasma, liver and bone
# Assay type: in vivo, mouse
# Particulars: female, C57BL/6J, mouse, bone (long bones), po, 10 mg/kg, bone, PO (QD*3), 7 h, individual animals; read-out: Bone 6641 PO (QD*3) concentration
# Method: The concentration of compound in plasma, liver, and long bones was detected using liquid chromatography tandem mass spectrometry (LC-MS/MS). […] IV administration, one 10 mg/kg PO administration and three 10 mg/kg PO administrations (QD*3). a Plasma, b liver and c bone profiles in female mice. The actual concentration (ng/g) is the detected value (ng/mL) multiplied by 4. […] Results are expressed as the mean ± SEM.
Experimental Readout: concentration at 7 h

Query string: Which measured concentration at 7 h value corresponds to O=C1Nc2ccc(-c3cc(C(F)(F)F)cc(C(F)(F)F)c3)cc2C(=O)N2CCN(C(=O)COc3ccc(OC(F)(F)F)cc3I)C[C@@H]12 ?
Result string: 141 ng/g

---

# Experiment Summary: Pharmacokinetic study, 3 mg/kg IV, 10 mg/kg PO and 10 mg/kg PO QD*3, plasma, liver and bone
# Assay type: in vivo, mouse
# Particulars: female, C57BL/6 J, mouse, plasma, po, 10 mg/kg, PO (QD*3), Time 48 h; individual values (1)-(3); N/A: Below detection level; read-out: Plasma concentration
Experimental Readout: concentration at 48 h (ng/mL)
Expressed in ng/mL, but write only the number.

Query string: Which measured concentration at 48 h value corresponds to O=C1Nc2ccc(-c3cc(C(F)(F)F)cc(C(F)(F)F)c3)cc2C(=O)N2CCN(C(=O)COc3ccc(OC(F)(F)F)cc3I)C[C@@H]12 ?
Result string: 1.04

---

# Experiment Summary: Pharmacokinetic study, single 30 mg/kg IP dose, plasma, liver and bone
# Format: in vivo, mouse
# Particulars: female, C57BL/6 J, mouse, bone, ip, 30 mg/kg, IP, Time 2 h; individual values (1)-(3); read-out: Bone concentration
Experimental Readout: concentration at 2 h (ng/g)
Expressed in ng/g, but write only the number.

Query string: Which measured concentration at 2 h value corresponds to O=C1Nc2ccc(-c3cc(C(F)(F)F)cc(C(F)(F)F)c3)cc2C(=O)N2CCN(C(=O)COc3ccc(OC(F)(F)F)cc3I)C[C@@H]12 [compound 6641] ?
Result string: 492
